experiment: yeast display, Sf9 membrane polyspecificity reagent, FACS + sequencing; frameworks hold sequencing errors
ATTRIBUTE MEASURED: polyreactivity (PSR sort gate)

biosequence=QVQLVESGGGLVQAGGSLRLSCAASGFIFASYAMGWYRQAPGKERELVAAISSSGGRTYYADSVKGRFTISRDNAKNTVYLQMNSLKPEDTAVYYCAADWRVTYDYWGQGTQVTVSS result="high polyreactivity"
biosequence=QVQLVESGGGLVPAGGSLRLSCAASGRIFRVYAMGWYRQAPGKERELVASISSGGSTNYADSVKGRFTISRDNAKNTVYLQMNSLKPEDTAVYYCAADYWYRLFWYYGAPLDYWGQGTQVTVSS result="low polyreactivity"
biosequence=HDQLVESGGGLVEAGGSLRLSCAASGITFKGYAMGWYRPAPGKERELVAAITSGGSTKYADSVKGRFTSSRDNAKNTVYLQMNSLKPEDTAVYYCAAAVVNYGWWTYGYYGFGYWGQGTQVTVSS result="high polyreactivity"
biosequence=QVQLVESGGGLVQAGGSLRVSCAASGFTFALYAMGWYRQAPGKERELVAAISWSGGTTYYADSVKGRFTISRDNEKNTVDLQMNSLNPEDTAVYYCNAYTRSRGYDYWGQGTQVTVSS result="high polyreactivity"
biosequence=QVQLVESGGGLVQAGGSLRLSCAASGGIFWHYTMGWYRQAPGKERELVAAITRRGGSTYYADSVKGRFTISRDNAKNTVYLQMNSLKPEDTSVYYGAAVFEWTSRGSYYRYYYWGQGTQVTVSS result="low polyreactivity"

----------
experiment: yeast display, Sf9 membrane polyspecificity reagent, FACS + sequencing; frameworks hold sequencing errors
ATTRIBUTE MEASURED: polyreactivity (PSR sort gate)

biosequence=QVQLEESVGGLVQAGGSLRLSCAASGLTFRAYAMGWYRQAPGKERELVAAISSGGSTSYADSVKGRFTISRDNANITVYLQMNRLKPEDSAVYYCAADRARRGIRDYYWGQGTQVTVSS attribute_measured="polyreactivity (PSR sort gate)" result="high polyreactivity"
biosequence=QVQLVESGGGLLQAGGSLRLSCAASGRIIGWYAMGWYRPAPGKERELVAAISRGGTRTNYADSVKGRFTISRDNAKNTVYLQMNSLKPEDTAVYSCAAGGSWCQNGYWGQGTQVTVSS attribute_measured="polyreactivity (PSR sort gate)" result="high polyreactivity"
biosequence=QVQLVESGGGLVQAGGSLRLSCAASGLIFRYYAMGWYRQAPGKERELVASISWHGGSTNYADSVKGRFTISRDNAKNTVYLQMNSLKPEDTAVYYCAADAWVATTILHDYWGQGTQVTVSS attribute_measured="polyreactivity (PSR sort gate)" result="high polyreactivity"
biosequence=QVQLVESGGGLVQAGGSLRLSCAASGRTFRNYAMGWYRQAPGKEREFVAAITGRGGSTYYADSVKGRFTISRDNAKNTVYLQMNSLKPEDTAVYYCAAVSGRTGQRTYYPYYYWGQGTQVTVSS attribute_measured="polyreactivity (PSR sort gate)" result="high polyreactivity"

----------
assay: yeast display, Sf9 membrane polyspecificity reagent, FACS + sequencing; frameworks hold sequencing errors
ATTRIBUTE MEASURED: polyreactivity (PSR sort gate)

biosequence=QVQLVESGGGLVQAGGSLSLSCAASGSIFTHNAMGWYRQAPGKERELVAAISSGGSTNYADSVKGRFTISRDNAKNTVYLQMNSLKPEDTAVYYCAAGTQWYSQVYIYYYGGQGTQVTVSS attribute_measured="polyreactivity (PSR sort gate)" result="low polyreactivity"
biosequence=QVQLVDSGGGLVQAGGSLRLSCAASGSIFLGYAMGWYRQAPGKVREFVAAITWSGGSTYYADSVKGRFTISRDIAKNTVYLQMNSLKQEDTAVYYCAVEIWIPTWYGLSGEYDYWGQGTQVTVSS attribute_measured="polyreactivity (PSR sort gate)" result="low polyreactivity"
biosequence=QVQIVESGGGLVQAGGSLRLSCAASGSIFYRNAMGWYRQAPGKERELVAAISSDGSTNYADSVKGRFTISRDNAKNTVYLQMNSLKPEDTAVYYCAAPWTQILDYWGQGTQVTVSS attribute_measured="polyreactivity (PSR sort gate)" result="low polyreactivity"
biosequence=QVQLVESGGGLVQAGGSLRLSCAASGRIFGYHARGWSRQAPGKERELVAAIDYTGGSTYYADSVKGRFTISRDNAKNTVYLQMNSLKPEETAVNYCAKDRTTPWEEDAYWGQGTQVTVSS attribute_measured="polyreactivity (PSR sort gate)" result="low polyreactivity"
biosequence=QVQLVESGGGLVQAGGSLRLSCAASGNTIGSNAMGWYRQAPGKERELVATISKRGGSTYYADSVKGRFTISRDNAKNTVYLQMNSLKPEDTAVYYCATTSTRYWAFSSRPDYRDDYWGQGTQVTVSS attribute_measured="polyreactivity (PSR sort gate)" result="high polyreactivity"
biosequence=QVQLVESGGGLVQAGGSLRLSCAASGYIFRSYVMGWYRQAPGKERELVAAISVSGGRTYYADSVKGRFTMSRDNAKNTVYLQMNSLIPEDTAVYYCAAYLGRRGQEMDYWGQGTQVTVSS attribute_measured="polyreactivity (PSR sort gate)" result="high polyreactivity"
biosequence=QVQLVESGGGLVQAGGSLRLSCAASGYTYWQYAMGWYRQAPGKERELVATITSRGGSTYYADSVKGRFTISRDNAKNTVYLQMNSLIPEDTAVYYCNARRRYSTRRSDYWGQGTQVTVSS attribute_measured="polyreactivity (PSR sort gate)" result="high polyreactivity"
biosequence=QVQLVESGGVLVQAGGSLRLSCAASGTFVVNDMGWYRQGPGKERELVAALSWSGGSTYYADSVKGRFTISRDNAKNTVYLQMTSLKPEDTAVYYCAADNWWVYPVWYENDYWGQGTQVTVSS attribute_measured="polyreactivity (PSR sort gate)" result="low polyreactivity"
biosequence=QVQLVESGAGLVQAGGSLRLSCAASGRNFWYYAMGLYRQAPGKERELVAGITYGDGSTYYADSVKGRFTISRDNAKNTVYLQMNSLKPEDTAVYYCAVDLRSYWFRYGFDYWGQGTQVTVSS attribute_measured="polyreactivity (PSR sort gate)" result="low polyreactivity"
biosequence=QVQLVESGGGLVQAGGSLRLSCAASGRIFGKNAMGWYRQAPGKERELVAAIRGNGGSTYYADSVKGRFTISRDNAKNTVYLQFNSLKPEDTAVYYCAARASAYFGRYYLYDYWGQGTQVTVSS attribute_measured="polyreactivity (PSR sort gate)" result="high polyreactivity"
biosequence=QVQLIESGGGLVQAGGSLRLSCAASGSTFERNTMGWYRQAPGKERELVAAITSGGRTYYADSVKGRFTISRDNAKNTVYLQMNSLKPEDTAVYYCAARLGRHVSYWRSGWTNMDYWGQGTQVTVSS attribute_measured="polyreactivity (PSR sort gate)" result="high polyreactivity"

----------
assay: yeast display, Sf9 membrane polyspecificity reagent, FACS + sequencing; frameworks hold sequencing errors
ATTRIBUTE MEASURED: polyreactivity (PSR sort gate)

biosequence=QVQLVESGGGLVQAGGSLRLSCAASGIIFYPYTMGWYRQAPGKERELVAAINSGGSTYYADSVKGRFTISRDNAKNTVYLQMNSLKPEDTAVYYCAAEANRYSSGYDYWGQGTQVTVTS attribute_measured="polyreactivity (PSR sort gate)" result="low polyreactivity"
biosequence=QVQLQESGGGLVQAGGTITLGYYMGWYRQAPGKEREFVAGIDTGAITYYADSVKGRFTNSRDNAKNTVYLQMNSLKPEDTAVYYCAAIQTHTYAHSYCGQGTQVTVSS attribute_measured="polyreactivity (PSR sort gate)" result="high polyreactivity"
biosequence=QVQLVESGGGLVQAGGSLRLSCAASGIIFGGYAMGWYGQAPGKERELVASITWGGGSTYYADSVKGRFTISRDNAKNTVYLQMNSLKPEDTAVYYCNKRGYPGSDWGQGTQVTVSS attribute_measured="polyreactivity (PSR sort gate)" result="low polyreactivity"
biosequence=QVQLVETGGGLVQEGGSLRLSCAASGRTFYSYAMGWYRQAPGKERELVARISSGGSTNYADSVKGRFTISRDNAKNTVYFQMNSLKPEDTAVYYCAAVRHRAMDYWGQGTQVTVSS attribute_measured="polyreactivity (PSR sort gate)" result="low polyreactivity"
biosequence=QVQLVESGGGLVQAGGSLRLSCAASGIIFGGNVMGWYRQAPGKERELVAAITWSGGTTYYADSVKGRFTISRDNAKNTVFLQMNSLKPEDTAVYYCAADRVYLDYVAGTYDYWGQGTQVTVSS attribute_measured="polyreactivity (PSR sort gate)" result="low polyreactivity"
biosequence=QVQLVESGGGLVQAGGSLRLSCAASGFTFWAYAMGWYRPAPGKERELVARISGSGGRTYYADSVKGRFTISRDNAKNTVYLQMNSLKREDTAVYYCNAPYFNWYGYWGQGTQVTVSS attribute_measured="polyreactivity (PSR sort gate)" result="high polyreactivity"
biosequence=QVQLVESGGGLVQAGGSLRLSCAASGSTFDIYAMGWYRQAPGKERKLVAVISGGDGSTYYADSVKGRFTISRDNAKNTVYLQMNSLKPEDTAVYYCEYDYWGQGTQVTVSS attribute_measured="polyreactivity (PSR sort gate)" result="low polyreactivity"
biosequence=QVQLVESGGGLVQAGGSLRLSCAASGRIFPYYAMGWYRQAPGKERELVAVISTRGGSTYYADSVKGRFTISRDNAKNTVYLQMNSLKPEDTAVYYCAAKSVYRMGYWGQGTQVTVSS attribute_measured="polyreactivity (PSR sort gate)" result="high polyreactivity"
biosequence=QVQLVESGGGLVQAGGSLRLSCAASGFTFRYYAMVWYRQAPGKERELVAAITSGDSTYYADSVKGLFTISRDNAKNTVYLQMNSLKPEDTAVYYCAAYSWLFEGYEYWGQGTIVTVSS attribute_measured="polyreactivity (PSR sort gate)" result="high polyreactivity"
biosequence=QVQLVESGGGLVQAGGSLRLSCAASVSTFISYAMGWYRQAPGKERELVAAISSSTGRTYYADSVKGRFTISRDNAKNTVYLQLNSLKPEDTAVFYCNAVHRYERDYWGQGTQVTVSS attribute_measured="polyreactivity (PSR sort gate)" result="high polyreactivity"
biosequence=QVRLVESGGGLVQAGGSLRLSCAASGSIFAPYAMGWYRQAPGKERELVATIRTTGDSTYYADSVKGRFTISRDNAKNTVYLQMNSLKPEDTAVYYCAKSEPLVVGVSPWYQVDYCGQGTQVTVSS attribute_measured="polyreactivity (PSR sort gate)" result="low polyreactivity"
biosequence=QVPLVESGGGLVQAGGSLRLSCAASGRIFIQNTMGWDSQAPGKERELVAAINRSAGSTYYADSVKGRFTISRDNAKNTVYLQMNSLKTEDTAVYYCAAYASRRYGYWGQVTQVTVSS attribute_measured="polyreactivity (PSR sort gate)" result="high polyreactivity"
biosequence=QVQLVESGGGLVQAGGSLRLSCAASGFIFDQNAMGCYRQAPGKEREFVAAISSRGSRTYYADSVKGRFTISRDKAKNTVYLQMNSLKPEDTAVYDCAAGYWARLYDYDYWGQGTQVTVSS attribute_measured="polyreactivity (PSR sort gate)" result="high polyreactivity"
biosequence=QVQLVESGGGLVQGGGSLRLSCAASGRTFAPNAMGWYRQAPGKERELVAAISYNSGTTYYADSVKGRFTISRDNAKNTVYLQMNSLKPEDTAVYYCAAGHWVGPYQAMEYWGQGTQVTVSS attribute_measured="polyreactivity (PSR sort gate)" result="high polyreactivity"
biosequence=QVQLVESGGGLVQAGGSLRLSCAASGRTFGHYAMGWYRQAPGKERELVATITGGGTTNYADSVKGRFTISRDNAKNTVYLQMNRLKPEDTAVYYCNAAWRYYWLGLRRNGYWGQGTQVTVSS attribute_measured="polyreactivity (PSR sort gate)" result="high polyreactivity"
biosequence=QVQLVESGGGLVQAGGSLRLSCAASGNTFFLNAMGWYRQAPGKERELVAAITSSGGSTYYADSVKGRFTISRDNAKNTVYLQMNSLKPEDTAVYYCATDRSYPPRSLNRRGPYEYWGQGTQVTVSS attribute_measured="polyreactivity (PSR sort gate)" result="low polyreactivity"
biosequence=QVQLVESGGGLVQAGGSLRLSCAASGYTFGGNAMGWYRQAPGKERELVAAISSGGSTNYADSVKGRFTISRDNAKNTVYLQMNSLKPEDTAVYYCNKRGYYYWSGQDVASYDYWGQGTQVTVSS attribute_measured="polyreactivity (PSR sort gate)" result="low polyreactivity"
biosequence=QVQLVESGGGLVQAGGSLRLICAASGSIFDSYTMGWYRQAPGKERELVAAISKNGGSTYYADSVKGRFTISRDNAKNTVYFQMNSLKPEDTAFYYCARSRSGYRYDYWGQGTQVTVSS attribute_measured="polyreactivity (PSR sort gate)" result="high polyreactivity"
biosequence=QLQLVESGRGLVQAGGSLRLSCAASGRTFYGYDMGWYRPAPGKERELVATISSGGSTNYADSVKGRFTISRDNAKNTVYLQMNSLKPEDTAVYYCNADSYEYPSPYRYYYLGYDYWGQGTQVTVSS attribute_measured="polyreactivity (PSR sort gate)" result="low polyreactivity"
biosequence=QVQLVESGGGLVQSGGSLRLSCAAYGNFFANNSMGWYRQAPGKERELVAAISQSGGNTYYADSVKGRFTISRDNAKNTVYLQMNSLKPEDTADYYCNAKTYGYNYDSWGQGTQVTVSS attribute_measured="polyreactivity (PSR sort gate)" result="low polyreactivity"
biosequence=QVQLVESGGGLVQAGGSIRLSCDASGNTFCTYAMGWYRQAPGKERELVATSAKRAGSTYYADSVKGRFTISRDNAKNTVFLQLKCLKPEDTAFYDCARDAYSVYYYVFLHWEYDYWGQVTQVTVSS attribute_measured="polyreactivity (PSR sort gate)" result="high polyreactivity"
